- Target Entity: HCoV-229E Mpro (Human coronavirus 229E, UniProt P0C6X1)
- Sequence (P0C6X1 2966-3267 limits assumed): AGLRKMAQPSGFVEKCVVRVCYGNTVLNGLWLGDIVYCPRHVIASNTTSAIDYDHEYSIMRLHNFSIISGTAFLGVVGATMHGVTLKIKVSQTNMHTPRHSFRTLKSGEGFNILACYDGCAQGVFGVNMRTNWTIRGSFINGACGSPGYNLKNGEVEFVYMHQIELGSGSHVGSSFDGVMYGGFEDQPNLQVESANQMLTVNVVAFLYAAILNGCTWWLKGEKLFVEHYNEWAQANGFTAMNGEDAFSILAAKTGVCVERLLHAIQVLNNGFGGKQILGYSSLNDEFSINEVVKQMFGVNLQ
- Assay Notes: HCoV-229E Mpro enzymatic inhibition assay (fluorescence)
- Format: biochemical
# pIC50 per entry
By convention, pIC50 is the negative base-10 log of a molar concentration.

Asked: Output pIC50 of CC1(C)[C@@H]2[C@@H](C(=O)N[C@H](C=O)C[C@@H]3CCNC3=O)N(C(=O)CN3CCCCCC3)C[C@@H]21 [Compound 55]
Given back: 7.41

---

Listed below: IC50 values for each entry.
- Target Entity: SARS-CoV-1 Mpro (Severe acute respiratory syndrome coronavirus, UniProt P0C6X7)
- Assay Notes: biochemical
Could you give me the number in nM? Just the number is fine.

# Smi, Measure, Value Unit, Result Number
records = [
    ("CC1(C)[C@@H]2[C@@H](C(=O)N[C@H](C=O)C[C@@H]3CCNC3=O)N(C(=O)c3cc4c(Cl)cc(Cl)cc4[nH]3)C[C@@H]21", "IC50", "nM", 75.4),
    ("CC1(C)[C@@H]2[C@@H](C(=O)N[C@H](C=O)C[C@@H]3CCNC3=O)N(C(=O)c3cc4cc(F)ccc4[nH]3)C[C@@H]21", "IC50", "nM", 73.6),
    ("C[C@@H](C(=O)N1C[C@H]2[C@@H]([C@H]1C(=O)N[C@H](C=O)C[C@@H]1CCNC1=O)C2(C)C)c1ccccc1", "IC50", "nM", 40.4),
    ("O=C[C@H](C[C@@H]1CCNC1=O)NC(=O)[C@@H]1CCCN1C(=O)c1cc2ccccc2[nH]1", "IC50", "nM", 691),
]

Asked: Read off the recorded IC50 for CC1(C)[C@@H]2[C@@H](C(=O)N[C@H](C=O)C[C@@H]3CCNC3=O)N(C(=O)c3cc4cccc(Cl)c4[nH]3)C[C@@H]21
Given back: 22.5

Asked: Recall and state the measured IC50 for CC1(C)[C@@H]2[C@@H](C(=O)N[C@H](C=O)C[C@@H]3CCNC3=O)N(C(=O)c3cc4ccc(Cl)c(F)c4[nH]3)C[C@@H]21 .
Given back: 27.6

Asked: Retrieve IC50 measured for CC1(C)[C@@H]2[C@@H](C(=O)N[C@H](C=O)C[C@@H]3CCNC3=O)N(C(=O)c3cc4ccc(F)cc4[nH]3)C[C@@H]21 and print it.
Given back: 40.1

---

- Target Entity: HCoV-NL63 Mpro (Human coronavirus NL63, UniProt P0C6X5)
- Sequence (P0C6X5 2940-3242 limits assumed): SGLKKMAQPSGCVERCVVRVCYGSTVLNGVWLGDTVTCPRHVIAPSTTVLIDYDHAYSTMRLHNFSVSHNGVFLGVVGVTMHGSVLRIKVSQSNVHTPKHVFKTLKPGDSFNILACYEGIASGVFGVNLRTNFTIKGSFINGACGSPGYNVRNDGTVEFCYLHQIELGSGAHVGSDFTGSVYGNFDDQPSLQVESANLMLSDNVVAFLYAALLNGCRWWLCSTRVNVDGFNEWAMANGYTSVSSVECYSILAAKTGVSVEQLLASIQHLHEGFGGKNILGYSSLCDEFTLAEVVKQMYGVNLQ
- Assay Notes: HCoV-NL63 Mpro enzymatic inhibition assay (fluorescence)
- Format: biochemical
Measure: IC50 (nM)
Form entry: value (nM) — number only.

A selection of reference data follows.
# Smi, Target Entity, Measure, Result Number
rows = [
    ("CC1(C)[C@@H]2[C@@H](C(=O)N[C@H](C=O)C[C@@H]3CCNC3=O)N(C(=O)c3cc4cccc(C#N)c4[nH]3)C[C@@H]21", "HCoV-NL63 Mpro (Human coronavirus NL63, UniProt P0C6X5)", "IC50", 59.6),
    ("CC1(C)[C@@H]2[C@@H](C(=O)N[C@H](C=O)C[C@@H]3CCNC3=O)N(C(=O)c3cc4cccc(C(F)(F)F)c4[nH]3)C[C@@H]21", "HCoV-NL63 Mpro (Human coronavirus NL63, UniProt P0C6X5)", "IC50", 93.9),
    ("COc1ccc(Cl)c2[nH]c(C(=O)N3C[C@H]4[C@@H]([C@H]3C(=O)N[C@H](C=O)C[C@@H]3CCNC3=O)C4(C)C)cc12", "HCoV-NL63 Mpro (Human coronavirus NL63, UniProt P0C6X5)", "IC50", 50.9),
]

Asked: Tell me its IC50 given CC(C)(C(=O)N1C[C@H]2[C@@H]([C@H]1C(=O)N[C@H](C=O)C[C@@H]1CCNC1=O)C2(C)C)c1ccccc1 as the entry.
Given back: 376

---

- Target Entity: HCoV-OC43 Mpro (Human coronavirus OC43)
- Sequence (P0C6X6 3247-3549 limits assumed): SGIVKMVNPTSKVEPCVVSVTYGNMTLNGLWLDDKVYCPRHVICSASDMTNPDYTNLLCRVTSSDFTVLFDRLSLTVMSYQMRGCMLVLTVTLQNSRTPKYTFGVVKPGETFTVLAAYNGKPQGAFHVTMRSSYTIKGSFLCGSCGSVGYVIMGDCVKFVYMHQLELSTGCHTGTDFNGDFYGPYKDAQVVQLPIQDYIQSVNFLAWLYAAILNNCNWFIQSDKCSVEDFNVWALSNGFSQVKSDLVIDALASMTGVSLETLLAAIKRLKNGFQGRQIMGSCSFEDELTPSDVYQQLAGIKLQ
- Assay Notes: HCoV-OC43 Mpro enzymatic inhibition assay (fluorescence)
- Format: biochemical
pIC50: −log10 of the molar value.
# binarize pIC50: threshold 7 inclusive, high side T, low side F

Here's what some known entries look like.
# Molecule, Target Entity, Class
measured = [
    ("O=C[C@H](C[C@@H]1CCNC1=O)NC(=O)[C@@H]1C[C@@H](Cc2cccc(Cl)c2)CN1C(=O)c1cc2ccccc2[nH]1 [Compound 137]", "HCoV-OC43 Mpro (Human coronavirus OC43)", "F"),
    ("CC1(C)[C@@H]2[C@@H](C(=O)N[C@H](C#N)C[C@@H]3CCNC3=O)N(C(=O)c3cc4cccc(Cl)c4[nH]3)C[C@@H]21 [Compound 132]", "HCoV-OC43 Mpro (Human coronavirus OC43)", "F"),
    ("CC1(C)[C@@H]2[C@@H](C(=O)N[C@H](C=O)C[C@@H]3CCNC3=O)N(C(=O)c3cc4sccc4[nH]3)C[C@@H]21 [Compound 30]", "HCoV-OC43 Mpro (Human coronavirus OC43)", "T"),
]

Asked: Exam item: decide whether the reported pIC50 for Cc1cccc([C@@H](C)C(=O)N2C[C@H]3[C@@H]([C@H]2C(=O)N[C@H](C=O)C[C@@H]2CCNC2=O)C3(C)C)c1 [Compound 7] is at least 7.
Given back: T

Asked: I'd appreciate it if you could say whether O=C[C@H](C[C@@H]1CCNC1=O)NC(=O)[C@@H]1[C@H]2CCC[C@H]2CN1C(=O)c1cc2ccccc2[nH]1 [Compound 26] has pIC50 at least equal to 7.
Given back: T

Asked: Does pIC50 meet or surpass 7 for CC1(C)[C@@H]2[C@@H](C(=O)N[C@H](C=O)C[C@@H]3CCCNC3=O)N(C(=O)c3cc4cccc(Cl)c4[nH]3)C[C@@H]21 [Compound 25] ?
Given back: T

---

- Target Entity: MERS Mpro (Middle East respiratory syndrome-related coronavirus)
- Sequence (K9N7C7 3248-3553 limits assumed): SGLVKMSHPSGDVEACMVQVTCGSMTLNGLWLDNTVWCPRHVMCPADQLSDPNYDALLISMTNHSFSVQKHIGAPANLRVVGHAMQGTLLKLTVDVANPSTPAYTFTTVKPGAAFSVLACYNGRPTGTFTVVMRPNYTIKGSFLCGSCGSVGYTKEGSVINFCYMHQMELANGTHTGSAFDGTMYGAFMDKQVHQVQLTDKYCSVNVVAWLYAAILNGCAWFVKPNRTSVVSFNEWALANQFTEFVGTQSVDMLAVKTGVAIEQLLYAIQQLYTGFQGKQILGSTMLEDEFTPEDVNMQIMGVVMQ
- Assay Notes: biochemical
- Parameters: species or system MERS-CoV
Reported IC50 is given for each of the following molecules.
Quick reminder: number only, in nM, skip the unit.

# Molecule, IC50, nM
records = [
    ("CC1(C)[C@@H]2[C@@H](C(=O)N[C@H](C=O)C[C@@H]3CCNC3=O)N(C(=O)c3cc4cccc(F)c4[nH]3)C[C@@H]21 [Compound 6]", 168),
    ("O=C[C@H](C[C@@H]1CCNC1=O)NC(=O)[C@@H]1C[C@@H](Cc2ccccc2Cl)CN1C(=O)c1cc2ccccc2[nH]1 [Compound 109]", 4320),
    ("CC1(C)[C@@H]2[C@@H](C(=O)N[C@H](C#N)C[C@@H]3CCNC3=O)N(C(=O)C3(c4cccc(Cl)c4)CC3)C[C@@H]21 [Compound 123]", 1180),
    ("CC(C)(C)[C@H](NC(=O)C(F)(F)F)C(=O)N1C[C@H]2[C@@H]([C@H]1C(=O)N[C@H](C=O)C[C@@H]1CCNC1=O)C2(C)C [Compound 12]", 175),
    ("CC1(C)[C@@H]2[C@@H](C(=O)N[C@H](C=O)C[C@@H]3CCNC3=O)N(C(=O)c3cc4occc4[nH]3)C[C@@H]21 [Compound 78]", 479),
]

Asked: Enter IC50 (test system MERS Mpro (Middle East respiratory syndrome-related coronavirus)) for COc1cccc2[nH]c(C(=O)N3C[C@H]4[C@@H]([C@H]3C(=O)N[C@H](C=O)C[C@@H]3CCNC3=O)C4(C)C)cc12 [Compound 65]
Given back: 320

Asked: Report IC50 from MERS Mpro (Middle East respiratory syndrome-related coronavirus) testing of CCc1cccc2[nH]c(C(=O)N3C[C@H]4[C@@H]([C@H]3C(=O)N[C@H](C=O)C[C@@H]3CCNC3=O)C4(C)C)cc12 [Compound 14]
Given back: 322

Asked: Lab note: MERS Mpro (Middle East respiratory syndrome-related coronavirus) assay, enter IC50 for CC1(C)C[C@@H](C(=O)N[C@H](C=O)C[C@@H]2CCNC2=O)N(C(=O)c2cc3c(F)cccc3[nH]2)C1 [Compound 51] here
Given back: 192

---

- Target Entity: HCoV-229E Mpro (Human coronavirus 229E)
- Assay Notes: HCoV-229E Mpro enzymatic inhibition assay (fluorescence)
- Assay type: biochemical
Measure: pIC50
Quick note: pIC50 values are minus log10 of concentrations in mol/L.

# Molecule, Target Entity, Measure, Result Number
rows = [
    ("Cc1cccc2[nH]c(C(=O)N3C[C@H]4[C@@H]([C@H]3C(=O)N[C@H](C=O)C[C@@H]3CCNC3=O)C4(C)C)cc12", "HCoV-229E Mpro (Human coronavirus 229E)", "pIC50", 7.46),
]

Asked: Tell me measured pIC50 for CC1(C)[C@@H]2[C@@H](C(=O)N[C@H](C=O)C[C@@H]3CCNC3=O)N(C(=O)c3cc4ccc(F)cc4[nH]3)C[C@@H]21 please.
Given back: 7.56

Asked: Please look at this molecule and report its pIC50: CC1(C)[C@@H]2[C@@H](C(=O)N[C@H](C=O)C[C@@H]3CCNC3=O)N(C(=O)C3(c4ccccc4)CCCC3)C[C@@H]21
Given back: 7.32

Asked: Consider the molecule Cc1ccc2cc(C(=O)N3C[C@H]4[C@@H]([C@H]3C(=O)N[C@H](C=O)C[C@@H]3CCNC3=O)C4(C)C)[nH]c2c1C . State its measured pIC50.
Given back: 7.41
